Test: CCTE_Shafer_MEA_acute_synchrony_index: CCTE's Neural Acute Assay for Synchrony, Shafer Lab (AID 2284027);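 further: network synchrony index of spontaneous spiking in primary rat cortical neurons on MEAs; fitted for loss of signal so actives lower synchrony relative to DMSO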
The source made the active and inactive calls. How the source made its calls: active means hit-call score of the fitted dose curve at least 0.9, where 1 is the maximum; inactive means score below 0.9.
Please answer using one outcome listed in True = active, False = inactive

(Q) // param item: `O=C(c1ccc(OCCN2CCCCC2)cc1)c1c(-c2ccc(O)cc2)sc2cc(O)ccc12` ; yields the recorded call
(A) True

(Q) // param item: `CCCCOCCOCCO` ; yields the recorded call
(A) False

(Q) // param item: `CC(C)(CO)CO` ; yields the recorded call
(A) False

(Q) // param item: `CCCCN(CCO)CCO` ; yields the recorded call
(A) False

(Q) // param item: `CC(=O)c1ccc(C)cc1` ; yields the recorded call
(A) False

(Q) // param item: `CC(C)CCCC(C)(C)O` ; yields the recorded call
(A) False

(Q) // param item: `c1ccc(OCCOc2ccccc2)cc1` ; yields the recorded call
(A) False

(Q) // param item: `N[C@@H](CCC(=O)O)C(=O)O` ; yields the recorded call
(A) False

(Q) // param item: `CCn1cc(C(=O)O)c(=O)c2ccc(C)nc21` ; yields the recorded call
(A) False

(Q) // param item: `CCCO[Si](OCCC)(OCCC)OCCC` ; yields the recorded call
(A) False

---

Test: ATG_PXRE_CIS: Attagene CIS-FACTORIAL HepG2 Assay for human Pregnane X Receptor Element (PXRE) (AID 2282957)
Particulars: HepG2 Attagene CIS-FACTORIAL PXRE reporter, mRNA; actives raise or lower the signal
Activity calls are given as the source filed them. The calls were made as follows: active = hit-call score of the fitted dose curve at least 0.9, where 1 is the maximum; inactive = score below 0.9.
Please answer using one outcome listed in active, inactive

(Q) // param item: `c1ccc2scnc2c1` ; yields the recorded call
(A) active

(Q) // param item: `CN(C)C` ; yields the recorded call
(A) inactive

(Q) // param item: `S=c1[nH][nH]c(=S)s1` ; yields the recorded call
(A) inactive

(Q) // param item: `CCOC(=O)C=Cc1ccccc1` ; yields the recorded call
(A) active

(Q) // param item: `CN(C)CCC=C1c2ccccc2CCc2ccccc21` ; yields the recorded call
(A) active

(Q) // param item: `CCC=C(C)C=O` ; yields the recorded call
(A) active

(Q) // param item: `CC(C)(C)c1ccc(S)cc1` ; yields the recorded call
(A) active

(Q) // param item: `c1ccc(OCCOc2ccccc2)cc1` ; yields the recorded call
(A) inactive

(Q) // param item: `CC(C)=CCCC(C)=CC(=O)O` ; yields the recorded call
(A) active

---

Test: BSK_3C_Proliferation: Cell Proliferation Assessment in the BioMAP Diversity Plus: 3C Assay (AID 2283006)
Particulars: primary human endothelial cells (HUVEC)
Procedure: BSK_3C is a cell-based, multiplexed-readout assay that uses umbilical vein endothelium, a human vascular primary cell, with measurements taken at 24 hours after chemical dosing in a 96-well plate.BSK_3C_Proliferation is an assay component measured in the BSK_3C assay. It measures 0.1% sulforhodamine related to cell proliferation using Sulforhodamine staining technology.Data from the assay component BSK_3C_Proliferation was analyzed into 1 assay endpoint. […]
Active and inactive are the calls of the source. The calls were made as follows: active = hit-call score of the fitted dose curve at least 0.9, where 1 is the maximum; inactive = score below 0.9.
Please answer using one outcome listed in 1 (yes) for active, 0 (no) for inactive

(Q) // param item: `c1ccc2c(c1)-c1ccc3ccc4cccc5cc-2c1c3c45` ; yields the recorded call
(A) 0 (no)

(Q) // param item: `CC(=O)OCC=C(C)CCC=C(C)CCC=C(C)C` ; yields the recorded call
(A) 0 (no)

(Q) // param item: `CCCCCCCCCC(=O)OCC` ; yields the recorded call
(A) 1 (yes)

(Q) // param item: `CC=CC(=O)C1=C(C)C=CCC1(C)C` ; yields the recorded call
(A) 0 (no)

(Q) // param item: `CC(=O)CCC=C(C)CCC=C(C)C` ; yields the recorded call
(A) 0 (no)

(Q) // param item: `C#C[C@]1(O)CC[C@H]2[C@@H]3CCc4cc(O)ccc4[C@H]3CC[C@@]21C` ; yields the recorded call
(A) 1 (yes)

(Q) // param item: `CCCCOCCOCCO` ; yields the recorded call
(A) 0 (no)

(Q) // param item: `C=C(C)C(N)=O` ; yields the recorded call
(A) 0 (no)

(Q) // param item: `O=C1OC2(c3ccc(O)cc3Oc3cc(O)ccc32)c2ccccc21` ; yields the recorded call
(A) 1 (yes)

(Q) // param item: `CC(=O)c1ccc(C)cc1` ; yields the recorded call
(A) 0 (no)

(Q) // param item: CCCCCCCC1CCCC1=O (centres undefined) ; yields the recorded call
(A) 1 (yes)

(Q) // param item: `COC(=O)c1ccc(C(=O)OC)cc1` ; yields the recorded call
(A) 0 (no)

(Q) // param item: `CCOC(=O)C=Cc1ccccc1` ; yields the recorded call
(A) 0 (no)

(Q) // param item: `COc1ccccc1NC(=O)CC(C)=O` ; yields the recorded call
(A) 0 (no)

(Q) // param item: `c1ccc(Sc2ccccc2)cc1` ; yields the recorded call
(A) 1 (yes)

(Q) // param item: `CCC(=O)OCC=Cc1ccccc1` ; yields the recorded call
(A) 0 (no)

(Q) // param item: `OCCN1CCOCC1` ; yields the recorded call
(A) 0 (no)

(Q) // param item: `O=S1(=O)CC(Cl)(Cl)C(Cl)(Cl)C1` ; yields the recorded call
(A) 1 (yes)

(Q) // param item: `C=C1CC/C=C(\C)CC[C@@H]2[C@@H]1CC2(C)C` ; yields the recorded call
(A) 1 (yes)

(Q) // param item: `CCCO[Si](OCCC)(OCCC)OCCC` ; yields the recorded call
(A) 0 (no)

(Q) // param item: `CC(C)(C)c1cccc(O)c1` ; yields the recorded call
(A) 0 (no)

(Q) // param item: `Nc1ccc(N)c([N+](=O)[O-])c1` ; yields the recorded call
(A) 0 (no)

(Q) // param item: `O=C(c1ccc(OCCN2CCCCC2)cc1)c1c(-c2ccc(O)cc2)sc2cc(O)ccc12` ; yields the recorded call
(A) 1 (yes)

(Q) // param item: `CC(C)CCCC(C)(C)O` ; yields the recorded call
(A) 0 (no)

---

System: Nuclear receptor subfamily 1 group I member 2 (Homo sapiens) (UniProt O75469)
Sequence (O75469 whole entry, looked up): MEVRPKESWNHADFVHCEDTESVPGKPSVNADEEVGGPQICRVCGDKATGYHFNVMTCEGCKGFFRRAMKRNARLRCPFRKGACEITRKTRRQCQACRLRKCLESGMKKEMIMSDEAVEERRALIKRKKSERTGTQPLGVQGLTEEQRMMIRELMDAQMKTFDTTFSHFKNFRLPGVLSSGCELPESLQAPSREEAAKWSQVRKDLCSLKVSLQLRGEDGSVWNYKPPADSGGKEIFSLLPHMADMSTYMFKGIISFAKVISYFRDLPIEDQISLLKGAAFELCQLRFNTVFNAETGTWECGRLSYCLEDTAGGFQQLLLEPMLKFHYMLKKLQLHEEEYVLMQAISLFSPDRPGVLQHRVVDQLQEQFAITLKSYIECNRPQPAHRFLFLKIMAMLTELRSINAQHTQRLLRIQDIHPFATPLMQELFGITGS
Test: NVS_NR_hPXR: NovaScreen (NVS) Nuclear Receptor Binding Assay for human Pregnane X Receptor (PXR) (AID 2283365);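 further: a drop in FRET signal versus DMSO baseline means the compound binds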
Experimental: NVS_NR_hPXR is a biochemical, single-readout assay that uses extracted gene-proteins in a cell-free assay. Measurements were taken 2 hours after chemical dosing in a 384-well plate.NVS_NR_hPXR is one of one assay component(s) measured or calculated from the NVS_NR_hPXR assay. […] This assay endpoint, NVS_NR_hPXR, was analyzed in the positive analysis fitting direction relative to DMSO as the negative control and baseline of activity. […]
Records with an inconclusive call do not appear. The source made the active and inactive calls. The calls were made as follows: active = hit-call score of the fitted dose curve at least 0.9, where 1 is the maximum; inconclusive = response in the unintended direction; inactive = score below 0.9.
Please answer using one outcome listed in class 1 for active, class 0 for inactive

(Q) // param item: `C[C@]12CC[C@@H]3c4ccc(O)cc4CC[C@H]3[C@@H]1CC[C@@H]2O` ; yields the recorded call
(A) class 0

(Q) // param item: `CCCCCCCCCCCCS` ; yields the recorded call
(A) class 0

(Q) // param item: `CC/C(=C(\c1ccccc1)c1ccc(OCCN(C)C)cc1)c1ccccc1` ; yields the recorded call
(A) class 0

(Q) // param item: `CCNC(=S)NCC` ; yields the recorded call
(A) class 0

(Q) // param item: `CCO[Si](CC)(OCC)OCC` ; yields the recorded call
(A) class 0

(Q) // param item: `NCCN1CCNCC1` ; yields the recorded call
(A) class 0

(Q) // param item: `CN(C)C` ; yields the recorded call
(A) class 0

(Q) // param item: CCCCCC1CCC(=O)O1 (centres undefined) ; yields the recorded call
(A) class 0

(Q) // param item: CCC(C)(CCCC(C)C)OC(C)=O (centres undefined) ; yields the recorded call
(A) class 0

(Q) // param item: CCC(C)(C)C1CCC(OC)CC1 (centres undefined) ; yields the recorded call
(A) class 0

(Q) // param item: `CC1=CCC(=C(C)C)CC1` ; yields the recorded call
(A) class 0

(Q) // param item: `CC(C)C(=O)c1ccccc1` ; yields the recorded call
(A) class 0

(Q) // param item: `CCCCC/C=C\C=C\C(=O)OCC` ; yields the recorded call
(A) class 1

(Q) // param item: `CN(C)C(=O)Nc1ccccc1` ; yields the recorded call
(A) class 0

---

Test: ATG_AP_1_CIS: Attagene CIS-FACTORIAL HepG2 Assay for human Activator Protein 1 (AP-1) (AID 2282931)
Particulars: HepG2 Attagene cis-factorial AP-1 reporter mRNA; actives raise or lower the signal
Activity calls are given as the source filed them. How the source made its calls: active means hit-call score of the fitted dose curve at least 0.9, where 1 is the maximum; inactive means score below 0.9.
Please answer using one outcome listed in active, inactive

(Q) // param item: `c1ccc(OCCOc2ccccc2)cc1` ; yields the recorded call
(A) inactive

(Q) // param item: `C[C@H](CCC(=O)O)[C@H]1CC[C@H]2[C@@H]3CC[C@@H]4C[C@H](O)CC[C@]4(C)[C@H]3CC[C@]12C` ; yields the recorded call
(A) inactive

(Q) // param item: `CCCCCCCCCO` ; yields the recorded call
(A) inactive

(Q) // param item: `Nc1ccc(O)c(N)c1` ; yields the recorded call
(A) inactive

(Q) // param item: CC/C=C\CCOC(C)OCC (configuration not stated) ; yields the recorded call
(A) inactive

(Q) // param item: CCCCCC1CCC(=O)O1 (configuration not stated) ; yields the recorded call
(A) inactive

(Q) // param item: `CC(=O)CC(=O)N(C)C` ; yields the recorded call
(A) inactive

(Q) // param item: `O=[N+]([O-])c1cc(N(CCO)CCO)ccc1NCCO` ; yields the recorded call
(A) inactive

(Q) // param item: `CCCCCCCCCCCCN1CCOCC1` ; yields the recorded call
(A) active

(Q) // param item: `C1CCCNCC1` ; yields the recorded call
(A) inactive

(Q) // param item: `CC(C)(C)c1cccc(O)c1` ; yields the recorded call
(A) inactive

(Q) // param item: `CC=CC(=O)C1=C(C)C=CCC1(C)C` ; yields the recorded call
(A) inactive

(Q) // param item: `c1ccc(Cc2ccccc2)cc1` ; yields the recorded call
(A) inactive

(Q) // param item: `CC(=O)CCc1ccc(O)cc1` ; yields the recorded call
(A) inactive

(Q) // param item: `CCOC(=O)C(=O)OCC` ; yields the recorded call
(A) inactive

(Q) // param item: `c1ccc2c(c1)-c1ccc3ccc4cccc5cc-2c1c3c45` ; yields the recorded call
(A) inactive

(Q) // param item: `Cc1cc(O)c(C)c(C)c1O` ; yields the recorded call
(A) inactive

(Q) // param item: `CC(=O)C1=C(C)[C@@H]2C[C@@]3(C1)[C@H](C)CC[C@H]3C2(C)C` ; yields the recorded call
(A) active

(Q) // param item: CC(C)Cc1ccc(C(C)C(=O)O)cc1 (configuration not stated) ; yields the recorded call
(A) inactive

(Q) // param item: `Cc1ccc(C(C)(C)O)cc1` ; yields the recorded call
(A) inactive

(Q) // param item: CCC(C)(CCCC(C)C)OC(C)=O (configuration not stated) ; yields the recorded call
(A) inactive

(Q) // param item: `C=C(C)C(N)=O` ; yields the recorded call
(A) inactive

(Q) // param item: `Brc1cc(Br)cc(Br)c1` ; yields the recorded call
(A) inactive

(Q) // param item: `CC(C)OB(OC(C)C)OC(C)C` ; yields the recorded call
(A) inactive

(Q) // param item: `CCCCCCCCCOS(=O)(=O)O` ; yields the recorded call
(A) inactive

(Q) // param item: `CC/C=C\CCOC(=O)C(C)C` ; yields the recorded call
(A) inactive

(Q) // param item: CCCCOC(=O)C(C)OC(=O)CCC (configuration not stated) ; yields the recorded call
(A) inactive

(Q) // param item: CC(=O)C1C(=O)C=C(C)OC1=O (configuration not stated) ; yields the recorded call
(A) inactive

(Q) // param item: `CC(C)(O)CCc1ccccc1` ; yields the recorded call
(A) inactive

(Q) // param item: `OCC=Cc1ccccc1` ; yields the recorded call
(A) inactive

(Q) // param item: `OCCN1CCOCC1` ; yields the recorded call
(A) inactive

(Q) // param item: `O=C1OCc2ccccc21` ; yields the recorded call
(A) inactive
